- Tested on: SARS-CoV-2 (βCoV/KOR/KCDC03/2020)
- Procedure summary: microbe, parasite or virus in culture
- Type: cell-based
- Particulars: Severe acute respiratory syndrome coronavirus 2, Vero, 24 h
pIC50: −log10 of the molar value.
Assay endpoint: pIC50

>>> print(df.to_string())
                                   compound  recorded_measurement
0  [O-][n+]1onc2ccc(/C=C/[S+]([O-])c3ccc(Cl)cc3)cc21 (stereo not drawn) [4d]                 ~5.10
1  CCC(CC)COC(=O)[C@H](C)N[P@](=O)(OC[C@H]1O[C@@](C#N)(c2ccc3c(N)ncnn23)[C@H](O)[C@@H]1O)Oc1ccccc1 [Remdesivir]                  5.10
2  O=C(/C=C/c1ccc2no[n+]([O-])c2c1)c1ccc(Cl)cc1 [5d]                 ~4.36

* * *

- Measurement target: UniProt P0DTD1
- Procedure summary: MPro activity assay (de-quenching of Edans fluorescence on cleavage of a Dabcyl/Edans peptide)
- Type: biochemical
- Particulars: read-out: MPro inhibition
Assay endpoint: inhibition at 25 µM (%)

In [3]: df
Out[3]:
                                   compound  units_text  recorded_measurement
0  O=S(=O)(Nc1nc2cc(Cl)c(Oc3cccc(Cl)c3Cl)cc2[nH]1)c1ccc(Br)cc1 [32d]           %                    25
1  COc1ccc(S(=O)(=O)Nc2nc3cc(Cl)c(Oc4cccc(Cl)c4Cl)cc3[nH]2)cc1 [30d]           %                    42
2  O=C(/C=C/c1ccc2ccccc2c1)c1ccc2ccccc2c1O [26d]           %                    45

* * *

- System: SARS-CoV-2 (βCoV/KOR/KCDC03/2020)
- Procedure summary: microbe, parasite or virus in culture
- Assay type: cell-based
Assay endpoint: IC50 (µM)

In [3]: df
Out[3]:
                                   compound                 measurement_target  recorded_measurement
0  O=C(/C=C/c1ccc2no[n+]([O-])c2c1)c1ccc(Cl)cc1 [5d]  SARS-CoV-2 (βCoV/KOR/KCDC03/2020)                  43.2
1  CCC(CC)COC(=O)[C@H](C)N[P@](=O)(OC[C@H]1O[C@@](C#N)(c2ccc3c(N)ncnn23)[C@H](O)[C@@H]1O)Oc1ccccc1 [Remdesivir]  SARS-CoV-2 (βCoV/KOR/KCDC03/2020)                   7.8
2  [O-][n+]1onc2ccc(/C=C/[S+]([O-])c3ccc(Cl)cc3)cc21 (stereo not drawn) [4d]  SARS-CoV-2 (βCoV/KOR/KCDC03/2020)                   7.3
3  [O-][n+]1onc2ccc(/C=C/Sc3ccc(Cl)cc3)cc21 [3d]  SARS-CoV-2 (βCoV/KOR/KCDC03/2020)                   8.3
4  O=C(/C=C/c1ccc2ccccc2c1)c1ccccc1O [compound 25]  SARS-CoV-2 (βCoV/KOR/KCDC03/2020)                  17.5
5     O=c1c2ccccc2[se]n1-c1ccccc1 [Ebselen]  SARS-CoV-2 (βCoV/KOR/KCDC03/2020)                   9.7
6  CCN(CC)CCCC(C)Nc1ccnc2cc(Cl)ccc12 (stereo not drawn) [Chloroquine]  SARS-CoV-2 (βCoV/KOR/KCDC03/2020)                  17.8
7  Cc1cccc(C)c1OCC(=O)N[C@@H](Cc1ccccc1)[C@@H](O)C[C@H](Cc1ccccc1)NC(=O)[C@H](C(C)C)N1CCCNC1=O [Lopinavir]  SARS-CoV-2 (βCoV/KOR/KCDC03/2020)                  21.5
8  Nc1ccc(S(=O)(=O)c2ccc(Nc3c([N+](=O)[O-])c(Cl)cc4c3no[n+]4[O-])cc2)cc1 [22d]  SARS-CoV-2 (βCoV/KOR/KCDC03/2020)                  44.8

* * *

- Procedure summary: in vitro
- Particulars: African green monkey
Catalogue of CC50 values
Assay endpoint: CC50 (µM)

Compound	Operator symbol	Recorded measurement
O=C(OC[C@H]1O[C@@H]([S+]([O-])c2ccccc2)[C@H](OC(=O)c2ccccc2)[C@@H](OC(=O)c2ccccc2)[C@@H]1OC(=O)c1ccccc1)c1ccccc1 (stereo partly shown)	>	50
[O-][n+]1onc2ccc(/C=C/Sc3ccc(Cl)cc3)cc21	=	15.2
O=C(/C=C/c1ccc2ccccc2c1)c1ccccc1O	=	38.8
CCC(CC)COC(=O)[C@H](C)N[P@](=O)(OC[C@H]1O[C@@](C#N)(c2ccc3c(N)ncnn23)[C@H](O)[C@@H]1O)Oc1ccccc1	>	50

* * *

- Procedure summary: Cytotoxicity assay, WST-1
- Particulars: human, CC50 A549 cells
Assay endpoint: CC50 at 24 h

>>> print(df.to_string())
                                   compound  recorded_measurement
0  O=C(/C=C/c1ccc2ccccc2c1)c1ccccc1O [compound 25]               > 50 µM
1  [O-][n+]1onc2ccc(/C=C/[S+]([O-])c3ccc(Cl)cc3)cc21 (stereo not drawn) [4d]               ≤ 50 µM
2  O=C(/C=C/c1ccc2no[n+]([O-])c2c1)c1ccc(Cl)cc1 [5d]               > 50 µM
3  Nc1ccc(S(=O)(=O)c2ccc(Nc3c([N+](=O)[O-])c(Cl)cc4c3no[n+]4[O-])cc2)cc1 [22d]              > 100 µM
4  [O-][n+]1onc2ccc(/C=C\c3ccc(Cl)cc3)cc21 [2d]               > 50 µM
5  O=C(/C=C/c1cccc2ccccc12)c1c(O)ccc2ccccc12 [28d]              > 100 µM
6  [O-][n+]1onc2ccc(/C=C/Sc3ccc(Cl)cc3)cc21 [3d]               ≤ 50 µM
7     O=c1c2ccccc2[se]n1-c1ccccc1 [Ebselen]              > 100 µM
8  O=c1c(Cl)c(Cl)cnn1Cc1nc2ccccc2c2ccccc12 [Cpd 39]          50 to 100 µM

* * *

- Measurement target: UniProt:P0DTD1
Square brackets hold non-standard residues; d marks the D form. Peptide text beside a SMILES is read from it. * marks the point of attachment. ξ: configuration not given here. Boc = CC(C)(C)OC(=O)*; ξV = CC(C)C(N)C(=O)O; GABA = NCCCC(=O)O; ξA = CC(N)C(=O)O
The label is satisfied for IC50 below 0.5 µM and not satisfied for IC50 equal to or exceeding 0.5 µM.

Compound	Category
O=C(/C=C/c1ccc2no[n+]([O-])c2c1)c1ccc(Cl)cc1	not satisfied
O=C(/C=C/c1ccc2ccccc2c1)c1ccccc1O [compound 25]	satisfied
COC(=O)[C@@H](Cc1ccccc1)NC(=O)C(C)NC(=O)[C@@H](NC(=O)C(NC(=O)CCCNC(=O)OC(C)(C)C)C(C)C)C(C)C (stereo partly shown) [2a] ({Boc-GABA}-[ξV]V[ξA][dF]-OMe)	not satisfied
O=c1c(Cl)c(Cl)cnn1Cc1nc2ccccc2c2ccccc12 [39d]	not satisfied
O=C(OC[C@H]1O[C@@H]([S+]([O-])c2ccccc2)[C@H](OC(=O)c2ccccc2)[C@@H](OC(=O)c2ccccc2)[C@@H]1OC(=O)c1ccccc1)c1ccccc1 (stereo partly shown)	not satisfied
Nc1ccc(S(=O)(=O)c2ccc(Nc3c([N+](=O)[O-])c(Cl)cc4c3no[n+]4[O-])cc2)cc1 [22d]	satisfied
[O-][n+]1onc2ccc(/C=C/[S+]([O-])c3ccc(Cl)cc3)cc21 (stereo not shown)	satisfied
O=C(/C=C/c1ccc2ccccc2c1)c1c(O)ccc2ccccc12 [27d]	not satisfied
Cc1ccc(S(=O)(=O)Nc2nc3cc(Cl)c(Oc4cccc(Cl)c4Cl)cc3[nH]2)cc1	not satisfied
[O-][n+]1onc2ccc(/C=C/Sc3ccc(Cl)cc3)cc21	not satisfied
O=c1c(Cl)c(Cl)cnn1Cc1nc2ccccc2c2ccccc12 [Cpd 39]	not satisfied

* * *

- Measurement target: SARS-CoV-2 MPro (Severe acute respiratory syndrome coronavirus 2, UniProt P0DTD1)
- Procedure summary: MPro activity assay (de-quenching of Edans fluorescence on cleavage of a Dabcyl/Edans peptide)
- Assay type: biochemical
- Particulars: read-out: MPro activity (%)
Values of activity at 25 µM greater than or equal to 70% map to Fulfilled; values below map to Not fulfilled.

>>> df
                                    compound       category
 0  CC(=O)OC[C@H]1O[C@@H](Sc2ccccc2)[C@H](OC(C)=O)[C@@H](OC(C)=O)C1OC(C)=O (stereo partly shown) [6a]  Not fulfilled
 1  [O-][n+]1onc2ccc(/C=C\[S+]([O-])c3ccccc3)cc21 (stereo not shown) [12d]  Not fulfilled
 2  [O-][n+]1onc2ccc(/C=C/[S+]([O-])c3ccccc3)cc21 (stereo not shown) [8d]      Fulfilled
 3  Cc1ccc(S(=O)(=O)/C=C\c2ccc3no[n+]([O-])c3c2)cc1 [19d]      Fulfilled
 4  O=S(=O)(O)c1ccc(/C=N/N=c2\scc(-c3cs/c(=N\N=C\c4ccc(S(=O)(=O)O)o4)n3-c3ccccc3)n2-c2ccccc2)o1 [5a]  Not fulfilled
 5  Cc1ccc([S+]([O-])/C=C\c2ccc3no[n+]([O-])c3c2)cc1 (stereo not shown) [14d]      Fulfilled
 6  [O-][n+]1onc2ccc(/C=C\Sc3ccc(F)cc3)cc21 [9d]      Fulfilled
 7  CC(C)(C)OC(=O)NC1CCCN(CC(=O)NC(Cc2ccccc2)C(=O)Nc2nc3cc(Sc4ccccc4)ccc3[nH]2)C1=O (stereo not shown) [3a]  Not fulfilled
 8             COc1ccc2no[n+]([O-])c2c1 [6d]      Fulfilled
 9  [O-][n+]1onc2ccc(/C=C\c3ccc4c(c3)OCO4)cc21 [15d]  Not fulfilled
10  Cc1ccc(S(=O)(=O)/C=C/c2ccc3no[n+]([O-])c3c2)cc1 [20d]  Not fulfilled
11  [O-][n+]1onc2ccc(/C=C\c3ccc(Cl)cc3)cc21 [2d]  Not fulfilled
12  O=[N+]([O-])c1ccc(CS(=O)(=O)/C=C/c2ccc3nonc3c2)cc1 [17d]      Fulfilled
13  O=C(c1ccc2no[n+]([O-])c2c1)N1CCOCC1 [21d]      Fulfilled
14  Cc1c(C(=O)NCc2ccccc2)[n+]([O-])c2ccccc2[n+]1[O-] [4a]  Not fulfilled
15  O=C(O[C@@H]1Cc2c(O)cc(O)cc2O[C@@H]1c1ccc(O)c(O)c1)c1cc(O)c(O)c(O)c1 [5b, epicatechin gallate]  Not fulfilled
16  COc1ccc(C(=O)C2=C(O)C(=O)N(c3nc4ccc(Cl)cc4s3)C2c2ccc(F)cc2)cc1OC (stereo not shown) [1a]  Not fulfilled
17  [O-][n+]1onc2ccc(/C=C/[S+]([O-])c3ccc(F)cc3)cc21 (stereo not shown) [10d]  Not fulfilled
18         O=C(O)c1ccc2no[n+]([O-])c2c1 [7d]  Not fulfilled
19         [O-][n+]1onc2cc(Cl)cc(Cl)c21 [1d]      Fulfilled
20  O=C(OC[C@H]1O[C@@H](OC(=O)c2ccccc2)[C@H](OC(=O)c2ccccc2)[C@@H](OC(=O)c2ccccc2)[C@@H]1OC(=O)c1ccccc1)c1ccccc1 [8a]  Not fulfilled
21  O=S(=O)(/C=C\c1ccc2no[n+]([O-])c2c1)c1ccc(Cl)cc1 [13d]  Not fulfilled
